Give normalized growth for every item shown.
assay: chemical genetic growth profiling, strain panel (AID 1159580);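 further: tested at 20 µM; growth read once vehicle control cultures reached saturation at 30 °C; 1 = growth at the plate median or of vehicle wells; lower values mean less growth of the strain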; details: S. cerevisiae deletion strains, growth OD, locus YER167W, strain BCK2, stronger effect = lower value
Screen size: about 5,500 compounds; about 2,000 (36%) were called active. Not shown: some 18% with an inconclusive outcome. The list shows a part of the results. Where a SMILES comes first, the peptide text is derived from it. Bridges are numbered along the chain shown (N, C = ends). [ ]: non-standard residue; d: D form. The star is where a group is joined. ξ: configuration not given here. ξDab(CH2SO3H) = NC(CCNCS(=O)(=O)O)C(=O)O; Heptanoyl(6-Me) = CC(C)CCCCC(=O)*; Dab = NCC[CH](N)C(=O)O
No unit in the answer, please; the number alone is enough.

Entry under review: `N=C(N)c1ccc(OCCCCCOc2ccc(C(=N)N)cc2)cc1` . Reported normalized growth? 0.915

Likewise for `NNC(=O)c1ccncc1` ? 1

Likewise for `O=C1C(O)=C(O)C(=O)C(O)=C1O` ? 1.01

Likewise for OC(CCN1CCCC1)(c1ccccc1)C1CCCCC1 (centres undefined) ? 0.992

Likewise for `NC12CC3CC(CC(C3)C1)C2` ? 1

Likewise for CCC(C)C1NC(=O)C(CCNCS(=O)(=O)O)NC(=O)C(NC(=O)C(CCNCS(=O)(=O)O)NC(=O)C(NC(=O)C(CCNCS(=O)(=O)O)NC(=O)CCCCC(C)C)C(C)O)CCNC(=O)C(C(C)O)NC(=O)C(CCNCS(=O)(=O)O)NC(=O)C(CCNCS(=O)(=O)O)NC(=O)C(C(C)CC)NC1=O (centres undefined) ({Heptanoyl(6-Me)}-[ξDab(CH2SO3H)]T[ξDab(CH2SO3H)][Dab][ξDab(CH2SO3H)]II[ξDab(CH2SO3H)][ξDab(CH2SO3H)]T; lactam 4-C; configuration not given here) ? 0.964

Likewise for `CC(=O)NCc1c(I)c(NC(C)=O)c(I)c(C(=O)O)c1I` ? 1

Likewise for COC(=O)C[C@H]1C(C)(C)C(=O)[C@@H]2CC3C4=CC(=O)O[C@@H](c5ccoc5)[C@]4(C)CCC3[C@@]1(C)C2=O (some centres undefined) ? 0.978

Likewise for CC1=CCC2C3(C)C1=CC(=O)OC3CC1C(C)(C)CC(O)C(O)C12C (centres undefined) ? 1.03

Likewise for OC(CCN1CCCCC1)(c1ccccc1)C1CCCCC1 (centres undefined) ? 1.01

Likewise for Nc1ccccc1C(=O)CC(N)C(=O)O (centres undefined) ? 1.01

Likewise for C#C[C@]1(O)CCC2C3CCC4=CC(=O)CC[C@@H]4C3CC[C@@]21CC (some centres undefined) ? 0.991

Likewise for C#C[C@]1(OC(C)=O)CCC2C3CCC4=CC(=O)CC[C@@H]4C3CC[C@@]21C (some centres undefined) ? 0.974

Likewise for `CC(C)(Sc1cc(C(C)(C)C)c(O)c(C(C)(C)C)c1)Sc1cc(C(C)(C)C)c(O)c(C(C)(C)C)c1` ? 1.03

Likewise for `CCCOc1ccccc1-c1nc2n[nH]nc2c(=O)[nH]1` ? 1.01

Likewise for COC(=O)C[C@H]1C(C)(C)C2(O)OC34CC2C(=O)[C@]1(C)C3CC[C@]1(C)C4=CC(=O)O[C@H]1c1ccoc1 (some centres undefined) ? 0.996

Likewise for `COc1ccc2c3c([nH]c2c1)C(C)=NCC3` ? 1.01

Likewise for `NNc1nncc2ccccc12` ? 1.01

Likewise for Nc1c2c(nc3ccccc13)CCCC2O (centres undefined) ? 1
